- assay: Single dose plasma pharmacokinetics in CD1 mice
- Assay type: in vivo, mouse
- recorded_conditions: male, CD1, mouse; plasma, PO 40 mg/kg
property_label: Tmax (min)
Answers are plain numbers, in min.

What does the record list as Tmax for Cl.Cl.N#Cc1ccc(/C=C2/C(=O)/C(=C/c3ccc(C#N)cc3)C23CCN(C(=N)N)CC3)cc1 ?
15

---

- assay: Kinetic aqueous solubility in PBS pH 7.4
- Assay type: physicochemical
- recorded_conditions: 25 °C, pH 7.4, aqueous buffer, kinetic from dmso stock, kinetic, 2% DMSO, 25°C, 2 h; read-out: PBS solubility, pH 7.4, Incubation 1
property_label: solubility at 2 h
Lab note: write values as number then unit, every time.

What does the record list as solubility at 2 h for Cl.Cl.N#Cc1ccc(/C=C2/C(=O)/C(=C/c3ccc(C#N)cc3)C23CCN(C(=N)N)CC3)cc1 ?
136 µM

Values compiled from paper PMC11239005.
